Form field: pIC50 (one value per entry).
- experimentalTarget: recombinant c-Met kinase (Homo sapiens, UniProt P08581)
- Sequence (P08581 25-1390): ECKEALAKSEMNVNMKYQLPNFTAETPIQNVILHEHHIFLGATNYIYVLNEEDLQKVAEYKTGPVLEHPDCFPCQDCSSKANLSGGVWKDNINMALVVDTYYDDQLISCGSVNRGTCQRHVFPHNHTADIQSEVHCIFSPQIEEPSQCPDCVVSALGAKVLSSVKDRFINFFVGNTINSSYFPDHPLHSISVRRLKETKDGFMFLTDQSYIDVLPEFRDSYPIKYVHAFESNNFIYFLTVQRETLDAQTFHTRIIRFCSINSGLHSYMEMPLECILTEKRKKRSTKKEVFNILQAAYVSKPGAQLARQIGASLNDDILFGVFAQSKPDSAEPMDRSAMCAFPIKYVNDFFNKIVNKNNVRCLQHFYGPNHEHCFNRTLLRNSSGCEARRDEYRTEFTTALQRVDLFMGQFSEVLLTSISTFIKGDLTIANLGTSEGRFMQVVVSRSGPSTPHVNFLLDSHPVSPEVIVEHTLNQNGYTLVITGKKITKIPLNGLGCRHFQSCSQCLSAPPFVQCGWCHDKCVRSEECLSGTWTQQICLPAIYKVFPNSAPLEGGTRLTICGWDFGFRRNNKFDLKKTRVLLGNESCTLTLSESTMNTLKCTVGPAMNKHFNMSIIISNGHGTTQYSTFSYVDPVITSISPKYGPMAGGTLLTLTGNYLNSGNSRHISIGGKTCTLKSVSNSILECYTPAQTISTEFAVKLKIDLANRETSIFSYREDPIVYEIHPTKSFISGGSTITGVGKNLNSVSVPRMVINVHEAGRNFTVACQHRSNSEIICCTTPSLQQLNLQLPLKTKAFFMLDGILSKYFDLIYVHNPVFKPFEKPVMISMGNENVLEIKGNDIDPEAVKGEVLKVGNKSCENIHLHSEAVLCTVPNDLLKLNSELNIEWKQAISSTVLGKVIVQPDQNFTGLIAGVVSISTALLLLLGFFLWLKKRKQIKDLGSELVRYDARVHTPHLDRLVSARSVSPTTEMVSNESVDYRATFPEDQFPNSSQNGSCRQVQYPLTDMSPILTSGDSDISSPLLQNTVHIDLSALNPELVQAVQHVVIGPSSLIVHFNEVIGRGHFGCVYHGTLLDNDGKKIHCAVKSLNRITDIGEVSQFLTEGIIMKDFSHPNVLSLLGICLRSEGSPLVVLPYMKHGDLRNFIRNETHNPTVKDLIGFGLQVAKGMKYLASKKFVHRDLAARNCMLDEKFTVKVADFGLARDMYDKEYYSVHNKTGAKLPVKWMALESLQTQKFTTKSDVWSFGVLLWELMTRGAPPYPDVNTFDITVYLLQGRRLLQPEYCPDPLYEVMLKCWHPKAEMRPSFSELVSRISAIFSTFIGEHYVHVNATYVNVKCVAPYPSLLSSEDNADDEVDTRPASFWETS
- experimentNotes: Cell-free detection of c-Met kinase activity (ADP-Glo assay)
// returns pIC50 (minus log10 of molar concentration), number only

compound="COc1cc(/C=N/NC(=O)Cn2cc(-c3cccc(NC(C)=O)c3)nn2)cc(OC)c1OC [Compound 10k]" numericvalue=7.04
compound="O=C(Cn1cc(-c2ccccc2)nn1)N/N=C/c1ccccc1[N+](=O)[O-] [Compound 11e]" numericvalue=5.37
compound="CC(=O)Nc1cccc(-c2cn(CC(=O)N/N=C/c3ccc(O)cc3)nn2)c1 [Compound 10c]" numericvalue=4.95
compound="O=C(Cn1cc(-c2ccccc2)nn1)N/N=C/c1cccc(Cl)c1 [Compound 11b]" numericvalue=8.47
compound="CC(=O)Nc1cccc(-c2cn(CC(=O)N/N=C/c3ccccc3[N+](=O)[O-])nn2)c1 [Compound 10e]" numericvalue=5.23

Record O=C(Cn1cc(-c2ccccc2)nn1)N/N=C/c1ccc(O)cc1 [Compound 11c] , field pIC50: 5.25

Recorded result, CC(=O)Nc1cccc(-c2cn(CC(=O)N/N=C/c3cc(Cl)ccc3O)nn2)c1 [Compound 10f] , pIC50: 8.92

pIC50 in this record for O=C(Cn1cc(-c2ccccc2)nn1)N/N=C/c1cc(Br)ccc1O [Compound 11h] : 7.92

Documented pIC50 of CC(=O)Nc1cccc(-c2cn(CC(=O)N/N=C/c3cccc(Cl)c3)nn2)c1 [Compound 10b] : 9.43

# pIC50 (compound: CC(=O)Nc1cccc(-c2cn(CC(=O)N/N=C/c3ccccc3O)nn2)c1 [Compound 10d] ) is 6.58
